System: Fer (mouse)
experimental_protocol: phosphorylation enrichment, bacterial display (enrichment ratio); higher = better substrate or ligand; peptides without Tyr show the background;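 further: 11-residue human phosphosite peptides and single-mutation variants displayed on the E. coli surface, counted by deep sequencing, each peptide's frequency after selection divided by its frequency in the unselected input library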;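 further: frequency after pTyr selection over input frequency; kinase dosed for 20-30% of maximal phosphorylation in three min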
Field: phosphorylation enrichment. Provide a value for each of the sequences that follow.
Quick one: just the number, no unit, thanks!

Prompt: Which value of phosphorylation enrichment has been reported for TIAIRYSHSRR [ACOXL_Y260] in the records?
Response: 0.632

Prompt: Which value of phosphorylation enrichment has been reported for SFCFRYRCAAQ [SUMF1_Y344_R349Q_YF] in the records?
Response: 0.402

Prompt: Which value of phosphorylation enrichment has been reported for EVVGRYSVHNA [MLH1_Y183] in the records?
Response: 0.405

Prompt: Which value of phosphorylation enrichment has been reported for PIGRKYKKVRF [F8_Y442_R437P] in the records?
Response: 0.459

Prompt: Which value of phosphorylation enrichment has been reported for IRRWVYPLTPE [EIF2B5_Y319] in the records?
Response: 0.559

Prompt: Which value of phosphorylation enrichment has been reported for TKAEKYVNKPK [PLCG1_Y991_A995P] in the records?
Response: 0.442

Prompt: Which value of phosphorylation enrichment has been reported for ERDTVYSSSGV [NELL2_Y350_N347D] in the records?
Response: 0.451

Prompt: Which value of phosphorylation enrichment has been reported for LEHCQYVTQKV [ALDOB_Y204_E207Q] in the records?
Response: 0.648

Prompt: Which value of phosphorylation enrichment has been reported for ELTSVYDSRAR [SENP1_Y349] in the records?
Response: 0.432

Prompt: Which value of phosphorylation enrichment has been reported for LRNIDYHRLDG [ATRX_Y2083_Y2084H] in the records?
Response: 0.571

Prompt: Which value of phosphorylation enrichment has been reported for HKLSSYEFDFE [BTK_Y40_Y39S_YF] in the records?
Response: 0.664

Prompt: Which value of phosphorylation enrichment has been reported for DYLEKYYKFGS [NNMT_Y24] in the records?
Response: 0.369

Prompt: Which value of phosphorylation enrichment has been reported for RLSELYLRRNR [CFAP410_Y68] in the records?
Response: 0.57

Prompt: Which value of phosphorylation enrichment has been reported for AEMTGYVVTRW [MAPK13_Y182] in the records?
Response: 0.499

====

Field: phosphorylation enrichment. Provide a value for each of the sequences that follow.
Tested on: c-Abl (mouse)
experimental_protocol: phosphorylation enrichment, bacterial display (enrichment ratio); higher = better substrate or ligand; peptides without Tyr show the background
Quick one: just the number, no unit, thanks!

Prompt: Checklist item: phosphorylation enrichment tested on c-Abl (mouse), entry VAMELYVFRGV [GAN_Y471_G474R] , value?
Response: 0.935

Prompt: Checklist item: phosphorylation enrichment tested on c-Abl (mouse), entry VGSEDYGWDLT [SPTAN1_Y1792_R1794W] , value?
Response: 0.724

Prompt: Checklist item: phosphorylation enrichment tested on c-Abl (mouse), entry SVVVPSEPPEV [TP53_Y220_Y220S] , value?
Response: 0.74

Prompt: Checklist item: phosphorylation enrichment tested on c-Abl (mouse), entry VRSTEYPCAGL , value?
Response: 0.611

Prompt: Checklist item: phosphorylation enrichment tested on c-Abl (mouse), entry RLSVDYGKKSK [TUBA3E_Y161_S162G] , value?
Response: 0.553

Prompt: Checklist item: phosphorylation enrichment tested on c-Abl (mouse), entry MDDDQYALLTA [EFCAB6_Y675_T680A] , value?
Response: 0.871

Prompt: Checklist item: phosphorylation enrichment tested on c-Abl (mouse), entry ANKNVYEVEPT [MEGF10_Y1075_R1072K] , value?
Response: 0.6

Prompt: Checklist item: phosphorylation enrichment tested on c-Abl (mouse), entry ICFSDYVEVAD [PHACTR1_Y525_R521C] , value?
Response: 0.985

Prompt: Checklist item: phosphorylation enrichment tested on c-Abl (mouse), entry RVFRDYVLKSA [HTATIP2_Y111_D108Y_YF] , value?
Response: 0.999

Prompt: Checklist item: phosphorylation enrichment tested on c-Abl (mouse), entry QGCSIYKDFFR [PLA2G2D_Y82_YF] , value?
Response: 2.14

Prompt: Checklist item: phosphorylation enrichment tested on c-Abl (mouse), entry RTIPDYTSFNT [EPHB2_Y912] , value?
Response: 1.02

Prompt: Checklist item: phosphorylation enrichment tested on c-Abl (mouse), entry RYMELYDLNRD [BBS2_Y648] , value?
Response: 0.993

Prompt: Checklist item: phosphorylation enrichment tested on c-Abl (mouse), entry FLAVGYHMPHI [IDS_Y225_K227M] , value?
Response: 1.33

Prompt: Checklist item: phosphorylation enrichment tested on c-Abl (mouse), entry RLSELYLRRNR [CFAP410_Y68] , value?
Response: 1.1

Prompt: Checklist item: phosphorylation enrichment tested on c-Abl (mouse), entry SVVVPYAPPEV [TP53_Y220_E221A] , value?
Response: 0.73

Prompt: Checklist item: phosphorylation enrichment tested on c-Abl (mouse), entry AGTILYHAHLG [ASS1_Y291_D296G] , value?
Response: 0.727

Prompt: Checklist item: phosphorylation enrichment tested on c-Abl (mouse), entry ALVLQYLRVPL [F9_Y371] , value?
Response: 0.62

Prompt: Checklist item: phosphorylation enrichment tested on c-Abl (mouse), entry IDPFIYTPFGS [CYP3A4_Y432_YF] , value?
Response: 0.773

Prompt: Checklist item: phosphorylation enrichment tested on c-Abl (mouse), entry CENNRYGMGTS [PDHA1_Y227] , value?
Response: 0.715

Prompt: Checklist item: phosphorylation enrichment tested on c-Abl (mouse), entry MENFIYESMQF [CYP19A1_Y361_R365Q_YF] , value?
Response: 4.06

Prompt: Checklist item: phosphorylation enrichment tested on c-Abl (mouse), entry PICEGYALPHA [ACTC1_Y171_Y168C] , value?
Response: 0.897

Prompt: Checklist item: phosphorylation enrichment tested on c-Abl (mouse), entry GVRLYYRVRES [RB1_Y454_M457R] , value?
Response: 0.39

Prompt: Checklist item: phosphorylation enrichment tested on c-Abl (mouse), entry ITSLLYHVVGW [GBA_Y412_N409S] , value?
Response: 2

Prompt: Checklist item: phosphorylation enrichment tested on c-Abl (mouse), entry GTTIHYNFMCN [TP53_Y234_C229G_YF] , value?
Response: 0.888

Prompt: Checklist item: phosphorylation enrichment tested on c-Abl (mouse), entry FSMGCYEFSLG [HMGCL_Y198_I200F_YF] , value?
Response: 1.47

Prompt: Checklist item: phosphorylation enrichment tested on c-Abl (mouse), entry QNWELYSEGLG [CNKSR1_Y665_R662W] , value?
Response: 0.751

Prompt: Checklist item: phosphorylation enrichment tested on c-Abl (mouse), entry AEMTGYVVTRW [MAPK13_Y182] , value?
Response: 0.895

Prompt: Checklist item: phosphorylation enrichment tested on c-Abl (mouse), entry YQGGTYSKACT [FGG_Y380_S384C] , value?
Response: 0.719

Prompt: Checklist item: phosphorylation enrichment tested on c-Abl (mouse), entry FSLPAYMDRRD [COX4I1_Y38] , value?
Response: 0.87

====

Tested on: c-Abl (mouse)
experimental_protocol: phosphorylation enrichment, bacterial display (enrichment ratio); higher = better substrate or ligand; peptides without Tyr show the background
Hi, to clarify the labels: Criterion met covers phosphorylation enrichment from 0.6 upward, Criterion not met covers anything below 0.6.

Prompt: Does the reported phosphorylation enrichment for QRPFVYFFSFL [PTEN_Y176_R173P_YF] fall at or above the 0.6 mark?
Response: Criterion met

Prompt: Does the reported phosphorylation enrichment for LVRPPYSFSAL [FOXI1_Y126_YF] fall at or above the 0.6 mark?
Response: Criterion not met

Prompt: Does the reported phosphorylation enrichment for LSTPEYGPKLK [TBC1D14_Y46_A43T] fall at or above the 0.6 mark?
Response: Criterion not met

Prompt: Does the reported phosphorylation enrichment for PLDGEYLTLQI [TP53_Y327_F328L] fall at or above the 0.6 mark?
Response: Criterion met

Prompt: Does the reported phosphorylation enrichment for RHAASYSSDSE [REPS1_Y116] fall at or above the 0.6 mark?
Response: Criterion met

Prompt: Does the reported phosphorylation enrichment for CRWKRYQCSHD [GDPD5_Y30_R32C] fall at or above the 0.6 mark?
Response: Criterion not met

Prompt: Does the reported phosphorylation enrichment for EFGEVYKGTLK [EPHA2_Y628_M631T] fall at or above the 0.6 mark?
Response: Criterion not met

Prompt: Does the reported phosphorylation enrichment for ASTDFNKRGDF [PDHA1_Y243_Y243N_YF] fall at or above the 0.6 mark?
Response: Criterion not met

Prompt: Does the reported phosphorylation enrichment for GTYEDYVEGLR [MYL6_Y89] fall at or above the 0.6 mark?
Response: Criterion met

Prompt: Does the reported phosphorylation enrichment for YSTPPYLLEAA [BRIP1_Y921_S919P] fall at or above the 0.6 mark?
Response: Criterion met

Prompt: Does the reported phosphorylation enrichment for FVTCTYSPALN [TP53_Y126_S121F] fall at or above the 0.6 mark?
Response: Criterion met

Prompt: Does the reported phosphorylation enrichment for SVVVPYEPSEV [TP53_Y220_P223S] fall at or above the 0.6 mark?
Response: Criterion met

Prompt: Does the reported phosphorylation enrichment for SHRQDYLVGNK [GSTA1_Y147_G144R] fall at or above the 0.6 mark?
Response: Criterion met

Prompt: Does the reported phosphorylation enrichment for FSDPSYVKQME [CDC5L_Y464_YF] fall at or above the 0.6 mark?
Response: Criterion not met

Prompt: Does the reported phosphorylation enrichment for EREYKYGAHKY [OAT_Y50_N54K] fall at or above the 0.6 mark?
Response: Criterion not met

Prompt: Does the reported phosphorylation enrichment for QMVGMYAFSFM [AVPR2_Y124_S126F_YF] fall at or above the 0.6 mark?
Response: Criterion met

Prompt: Does the reported phosphorylation enrichment for QRCFVYFFSFL [PTEN_Y176_R173C_YF] fall at or above the 0.6 mark?
Response: Criterion met

Prompt: Does the reported phosphorylation enrichment for LSIQCYLRASD [HMGCS2_Y262_L266S] fall at or above the 0.6 mark?
Response: Criterion met

Prompt: Does the reported phosphorylation enrichment for GFPVHYTDVSN [DNMT3B_Y815] fall at or above the 0.6 mark?
Response: Criterion not met

Prompt: Does the reported phosphorylation enrichment for TYQYKYPEGSS [TGM4_Y440_E437Q] fall at or above the 0.6 mark?
Response: Criterion met

Prompt: Does the reported phosphorylation enrichment for HSFNSYTFPRL [PAK5_Y316_YF] fall at or above the 0.6 mark?
Response: Criterion met

Prompt: Does the reported phosphorylation enrichment for IKNSGYISRYL [EIF2AK3_Y585] fall at or above the 0.6 mark?
Response: Criterion not met

Prompt: Does the reported phosphorylation enrichment for EFLRNYFTDKA [DSG2_Y775] fall at or above the 0.6 mark?
Response: Criterion met

Prompt: Does the reported phosphorylation enrichment for ADLTEYLSTHF [UQCRC1_Y219_YF] fall at or above the 0.6 mark?
Response: Criterion met

Prompt: Does the reported phosphorylation enrichment for NLMPAYYKCIQ [CYP21A2_Y190] fall at or above the 0.6 mark?
Response: Criterion met

Prompt: Does the reported phosphorylation enrichment for GLDGRYLLRDS [SH2D1A_Y29_S28R] fall at or above the 0.6 mark?
Response: Criterion not met
